test-protocol: Probe fluorescence ratio response to stearic acid relative to ADIFAB2
Assay type: binding
run-conditions: Table 5
property-measured: ΔR/DRAΔ2 SA
Numbers only.

// query Report measured ΔR/DRAΔ2 SA; entry is L2P17H10: FABP probe, substitutions M18G G31F A73L vs SEQ ID NO: 2 (protein, listed as Rattus norvegicus, PEPTIDE (1)...(131) wild-type rat intestinal fatty acid binding protein) AFDGTWKVDRNENYEKFGEKMGINVVKRKLFAHDNLKLTITQEGNKFTVKESSNFRNIDVVFELGVDFAYSLLDGTELTGTWTMEGNKLVGKFKRVDNGKELIAVREISGNELIQTYTYEGVEAKRIFKKE
// result 1.7
